Tested on: Methicillin resistant Staphylococcus aureus ATCC 43300
Assay: CIM antibacterial activity screening (broth microdilution)
Type: cell-based
Conditions: ATCC43300; Methicillin resistant Staphylococcus aureus ATCC 43300; read-out: CIM
Below: a set of entries, each annotated with reported MIC.
outcome_measure: MIC (µg/mL)

{"columns": ["smiles_structure", "target_of_assay", "bound_sign", "measurement"],
 "data": [
  ["CCc1nc2c(c3c1C(=O)C(Sc1ccccc1OC)=CC3=O)c(=O)n(C)c(=O)n2C", "Methicillin resistant Staphylococcus aureus ATCC 43300", "=", 2],
  ["CCc1nc2c(c3c1C(=O)C(Sc1cccc(C)c1)=CC3=O)c(=O)n(C)c(=O)n2C", "Methicillin resistant Staphylococcus aureus ATCC 43300", "=", 4],
  ["CCc1nc2c(c3c1C(=O)C=CC3=O)c(=O)n(C)c(=O)n2C", "Methicillin resistant Staphylococcus aureus ATCC 43300", "≥", 32],
  ["CCc1nc2c(c3c1C(=O)C(Sc1ccc(Br)cc1)=CC3=O)c(=O)n(C)c(=O)n2C", "Methicillin resistant Staphylococcus aureus ATCC 43300", "=", 4],
  ["CCc1nc2c(c3c1C(=O)C(Sc1cccc(OC)c1)=CC3=O)c(=O)n(C)c(=O)n2C", "Methicillin resistant Staphylococcus aureus ATCC 43300", "=", 4],
  ["CCc1nc2c(c3c1C(=O)C(Sc1cccc(F)c1)=CC3=O)c(=O)n(C)c(=O)n2C", "Methicillin resistant Staphylococcus aureus ATCC 43300", "=", 4],
  ["CCc1nc2c(c3c1C(=O)C(Sc1ccc(C)cc1)=CC3=O)c(=O)n(C)c(=O)n2C", "Methicillin resistant Staphylococcus aureus ATCC 43300", "=", 4],
  ["CCc1nc2c(c3c1C(=O)C(Sc1ccccc1Br)=CC3=O)c(=O)n(C)c(=O)n2C", "Methicillin resistant Staphylococcus aureus ATCC 43300", "=", 1]
]}

====

Below: a set of entries, each annotated with reported melting point.
outcome_measure: melting point

{"columns": ["smiles_structure", "measurement"],
 "data": [
  ["CCc1nc2c(c3c1C(=O)C(Sc1cccc(Br)c1)=CC3=O)c(=O)n(C)c(=O)n2C", "138.3 to 139.3 °C"],
  ["CCc1nc2c(c3c1C(=O)C(Sc1cccc(C)c1)=CC3=O)c(=O)n(C)c(=O)n2C", "162 to 163 °C"],
  ["CCc1nc2c(c3c1C(=O)C(Sc1ccc(Cl)cc1)=CC3=O)c(=O)n(C)c(=O)n2C", "196.5 to 198.3 °C"],
  ["CCc1nc2c(c3c1C(=O)C(Sc1ccccc1C)=CC3=O)c(=O)n(C)c(=O)n2C", "206 to 210.9 °C"],
  ["CCc1nc2c(c3c1C(=O)C(Sc1cccc(OC)c1)=CC3=O)c(=O)n(C)c(=O)n2C", "179.5 to 180.5 °C"],
  ["CCc1nc2c(c3c1C(=O)C(Sc1ccc(OC)cc1)=CC3=O)c(=O)n(C)c(=O)n2C", "198.9 to 201.5 °C"],
  ["CCc1nc2c(c3c1C(=O)C(Sc1ccc(Br)cc1)=CC3=O)c(=O)n(C)c(=O)n2C", "197.9 to 198.7 °C"],
  ["CCc1nc2c(c3c1C(=O)C=CC3=O)c(=O)n(C)c(=O)n2C", "167.6 to 167.9 °C"],
  ["CCc1nc2c(c3c1C(=O)C(Sc1cccc(Cl)c1)=CC3=O)c(=O)n(C)c(=O)n2C", "156.1 to 157.1 °C"],
  ["CCc1nc2c(c3c1C(=O)C(Sc1ccccc1)=CC3=O)c(=O)n(C)c(=O)n2C", "179.4 to 180 °C"],
  ["CCc1nc2c(c3c1C(=O)C(Sc1ccc(C)cc1)=CC3=O)c(=O)n(C)c(=O)n2C", "191 to 192.3 °C"],
  ["CCc1nc2c(c3c1C(=O)C(Sc1cccc(F)c1)=CC3=O)c(=O)n(C)c(=O)n2C", "170 to 171 °C"],
  ["CCc1nc2c(c3c1C(=O)C(Sc1ccc(F)cc1)=CC3=O)c(=O)n(C)c(=O)n2C", "194.9 to 195.4 °C"]
]}
